Reference source: patent US20200317817A1

Target: T1, human PTH1R overexpressed on CHO cells (human, UniProt Q03431 27-593)
T1 sequence (looked up): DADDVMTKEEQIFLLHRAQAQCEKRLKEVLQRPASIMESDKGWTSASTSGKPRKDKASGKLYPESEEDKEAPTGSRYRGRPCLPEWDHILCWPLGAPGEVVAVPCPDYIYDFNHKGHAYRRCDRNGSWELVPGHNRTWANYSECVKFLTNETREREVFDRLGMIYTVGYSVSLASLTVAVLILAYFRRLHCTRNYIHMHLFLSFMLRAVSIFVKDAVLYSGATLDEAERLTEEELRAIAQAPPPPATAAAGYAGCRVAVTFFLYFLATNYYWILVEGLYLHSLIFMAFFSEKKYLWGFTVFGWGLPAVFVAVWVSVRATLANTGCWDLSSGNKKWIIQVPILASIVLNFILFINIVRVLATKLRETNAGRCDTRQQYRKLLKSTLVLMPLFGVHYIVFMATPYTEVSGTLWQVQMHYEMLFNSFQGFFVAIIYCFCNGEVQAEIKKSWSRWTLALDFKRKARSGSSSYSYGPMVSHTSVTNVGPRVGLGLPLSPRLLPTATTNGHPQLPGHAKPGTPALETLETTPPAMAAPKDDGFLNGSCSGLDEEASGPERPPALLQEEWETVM
Test: cell-based or functional assay
measured attribute: IC50, inhibition of PTH(1-34)-induced cAMP accumulation (µM)
// units = µM; emit number, no label

Please report the recorded IC50, inhibition of PTH(1-34)-induced cAMP accumulation for XPA.85.332 (antibody, V domains shown, Light-chain-shuffled variant of XPA.85.012) VH: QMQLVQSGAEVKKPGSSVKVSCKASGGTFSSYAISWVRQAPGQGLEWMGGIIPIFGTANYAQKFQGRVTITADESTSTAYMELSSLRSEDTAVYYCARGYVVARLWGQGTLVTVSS VL: ETTLTQSPAFMSASVGDRVTITCQASQDINNFLNWYQQKPGKAPKFLIYDASNLEKGVPSKFSGRGSGTEFTLTISSLQPEDIATYYCQQYRDFPLTFGQGTRLEIK .
0.0121

So what does the record say about IC50, inhibition of PTH(1-34)-induced cAMP accumulation for XPA.85.343 (antibody, V domains shown, Light-chain-shuffled variant of XPA.85.012) VH: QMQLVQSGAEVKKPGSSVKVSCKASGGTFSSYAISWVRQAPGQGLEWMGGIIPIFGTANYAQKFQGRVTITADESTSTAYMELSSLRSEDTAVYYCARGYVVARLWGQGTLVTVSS VL: DVVMTQTPLSLSVTPGQPASISCKSSQSLLHIDGRTYLYWYLQKAGQPPQLLIYEVSNRFSGVPDRFSGSGSGTDFTLKISRVEAEDVGVYYCMQSIHFPLTFGGGTKLEIK ?
0.0144

I'd like to know its IC50, inhibition of PTH(1-34)-induced cAMP accumulation. The binder in question is XPA.85.330 (antibody, V domains shown, IgG; also called Ab330) VH: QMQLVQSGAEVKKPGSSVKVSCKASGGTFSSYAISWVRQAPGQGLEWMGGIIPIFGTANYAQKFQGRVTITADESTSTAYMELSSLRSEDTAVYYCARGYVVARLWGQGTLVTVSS VL: DIVMTQTPLSLSVTPGQPASISCKSSQSLLHIDGNTYLYWYLQRPGQPPQLLIYEISNRFSGVPDRFSGSGSGTDFTLKISRVEAEDVGVYYCMQSLHFPITFGQGTRLEIK
0.0106

Param item = XPA.85.329 (antibody, V domains shown, IgG; also called Ab329; XPA.329) VH: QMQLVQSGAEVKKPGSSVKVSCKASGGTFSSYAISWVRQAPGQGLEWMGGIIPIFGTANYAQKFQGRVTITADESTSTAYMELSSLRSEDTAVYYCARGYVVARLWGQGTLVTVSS VL: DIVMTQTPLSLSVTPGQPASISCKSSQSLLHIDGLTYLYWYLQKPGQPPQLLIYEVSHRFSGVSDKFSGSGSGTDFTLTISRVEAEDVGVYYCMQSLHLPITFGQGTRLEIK ; retrieve measured IC50, inhibition of PTH(1-34)-induced cAMP accumulation.
0.0166

Which IC50, inhibition of PTH(1-34)-induced cAMP accumulation value is on record for XPA.85.333 (antibody, V domains shown, Light-chain-shuffled variant of XPA.85.012) VH: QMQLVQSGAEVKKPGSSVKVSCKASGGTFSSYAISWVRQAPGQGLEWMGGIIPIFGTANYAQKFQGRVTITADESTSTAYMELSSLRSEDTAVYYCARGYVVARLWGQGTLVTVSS VL: DVVMTQTPLSLSVTPGQPASISCKSSQSLLHIDGKAYLYWYLQKPGQSPHLLIREVSTRFSGVSDRFTGSGSGTDFTLEISRVEAEDVGVYYCMQGLHLPPTFGQGTKVEIK ?
0.0114

Recorded IC50, inhibition of PTH(1-34)-induced cAMP accumulation for XPA.85.344 (antibody, V domains shown, Light-chain-shuffled variant of XPA.85.012) VH: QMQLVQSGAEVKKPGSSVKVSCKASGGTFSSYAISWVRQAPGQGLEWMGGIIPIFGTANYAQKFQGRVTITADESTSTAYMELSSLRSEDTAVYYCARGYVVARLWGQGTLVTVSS VL: DVVMTQTPLSLSVTPGQPASFSCKSTQSLLWRDGNTYLYWYLQKPGQSPQLLIYEVSGRFSGVPERFSGSGSGTDFTLEISRVEAEDVGVYYCMQSIHFPLTFGGGTKLEIK , please?
0.0155

Suppose we examine the binder XPA.85.328 (antibody, V domains shown, IgG; also called Ab328) VH: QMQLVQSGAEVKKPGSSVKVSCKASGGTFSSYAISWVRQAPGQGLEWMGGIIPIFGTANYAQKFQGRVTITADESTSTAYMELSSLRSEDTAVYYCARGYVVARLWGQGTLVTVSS VL: DVVMTQTPLSLSVTPGQPASISCKSSQSLLHIDGKTYLYWYLQKSGQSPQLLIYEVSNRFSGVPDTFSGSGSGTDFTLKISRVEAEDVGVYYCMQSLHFPITFGQGTRLEIK ; what IC50, inhibition of PTH(1-34)-induced cAMP accumulation value has been reported?
0.0118

// query IC50, inhibition of PTH(1-34)-induced cAMP accumulation value for entry XPA.85.345 (antibody, V domains shown, Light-chain-shuffled variant of XPA.85.012) VH: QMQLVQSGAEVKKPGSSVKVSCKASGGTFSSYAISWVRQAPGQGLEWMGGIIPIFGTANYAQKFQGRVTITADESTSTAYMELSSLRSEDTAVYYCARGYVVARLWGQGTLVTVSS VL: ETTLTQSPAFMSASVGDRVTITCQASQDINNFLNWYQQKPGKAPKFLIYDASNLEKGVPSRFSGRGSGTEFTLTISSLQPEDIATYYCQQYRDFPLTFGQGTRLEIK
0.0142

Entry under review: XPA.85.331 (antibody, V domains shown, Light-chain-shuffled variant of XPA.85.012) VH: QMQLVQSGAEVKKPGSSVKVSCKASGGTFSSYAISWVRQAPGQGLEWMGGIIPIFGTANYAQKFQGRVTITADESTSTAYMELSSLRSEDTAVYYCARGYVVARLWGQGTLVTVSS VL: DVVMTQSPLSLPVTPGEPASISCRSSQSLLHIDGFNYLQWYLQKPGQSPQLLVHLGSFRASGVPDRFSGSGSGTDFTLEISRVEAEDVGLYYCMQGLQTPPTFGPGTKVEIK . Reported IC50, inhibition of PTH(1-34)-induced cAMP accumulation?
0.0142
